# Streptococcus Pheumoniae ATCC6303: MIC values follow
assay.readout: MIC (µg/mL)

INSERT INTO assay_data (compound, target_desc, unit_text, value_observed) VALUES
  ('CC[C@H]1OC(=O)[C@H](C)C(=O)[C@H](C)[C@@H](O[C@@H]2O[C@H](C)C[C@H](N(C)C)[C@H]2O)[C@@]2(C)C[C@@H](C)C(=O)[C@H](C)[C@H]3N(CCNC(=O)c4ccccc4C=CCO2)C(=O)O[C@]13C', 'Streptococcus Pheumoniae ATCC6303', 'µg/mL', 0.25),
  ('CC[C@H]1OC(=O)[C@H](C)[C@@H](O[C@H]2C[C@@](C)(OC)[C@@H](O)[C@H](C)O2)[C@H](C)[C@@H](O[C@@H]2O[C@H](C)C[C@H](N(C)C)[C@H]2O)[C@](C)(O)C[C@@H](C)C(=O)[C@H](C)[C@@H](O)[C@]1(C)O [Ery. A, Erythromycin A, reference compound]', 'Streptococcus Pheumoniae ATCC6303', 'µg/mL', 0.06),
  ('CC[C@H]1OC(=O)[C@H](C)[C@@H](O[C@H]2C[C@@](C)(OC)[C@@H](O)[C@H](C)O2)[C@H](C)[C@@H](O[C@@H]2O[C@H](C)C[C@H](N(C)C)[C@H]2O)[C@@]2(C)C[C@@H](C)C(=O)[C@H](C)[C@H]3N(CC(O)CCCCO2)C(=O)O[C@]13C (stereo partly drawn)', 'Streptococcus Pheumoniae ATCC6303', 'µg/mL', 0.06);
